- Tested on: U-251
- Experiment Description: NCI tumour cell line growth inhibition, 48 h
Active and inactive are the calls of the source. No stated cut-off is given here; in the data, active = GI50 up to about 1.1 µM and inactive = higher.

# Compound, GI50
records = [
    ("Cc1ccc(C(=O)C2CC3(CCC2(O)c2ccc(C)cc2)CC(=O)Nc2ccccc2C3=O)cc1 (stereo not given)", "8.39 µM (inactive)"),
    ("CC(C)N1CN(c2ccccc2)C2(CCN(CCCC(=O)c3ccc(F)cc3)CC2)C1=O", "26.7 µM (inactive)"),
    ("COc1nc2c(nc(N)n2C2OC(CO)C(O)C(O)C2O)c(=O)[nH]1 (stereo not given)", "> 100 µM (inactive)"),
    ("C[C@]12C=CC(=O)C=C1CC[C@@H]1[C@@H]2CC[C@]2(C)OC(=O)CC[C@@H]12", "> 500 µM (inactive)"),
    ("CNc1ccc(N)cc1C(=O)N1CCC[C@H]1CO", "> 100 µM (inactive)"),
    ("COC(=O)c1ccccc1C#CCCCOS(C)(=O)=O", "> 10 µM (inactive)"),
    ("CNc1ncnc2c1ncn2C1C=CC(COS(N)(=O)=O)C1 (stereo not given)", "> 100 µM (inactive)"),
    ("COC(=O)c1ccc2c(c1)S/C(=C/c1ccc3ccc4cccc5ccc1c3c45)S2", "48.8 µM (inactive)"),
    ("CC(C)(C)[Si](OC1CC(n2cnc3c(N)ncnc32)OC1CO)(c1ccccc1)c1ccccc1 (stereo not given)", "17.1 µM (inactive)"),
    ("O=C(NNCC(O)COc1ccccc1)c1ccccc1 (stereo not given)", "> 100 µM (inactive)"),
    ("COP(=O)(OC)/C(=C\\c1cn(C(c2ccccc2)(c2ccccc2)c2ccccc2)cn1)NC(C)=O", "> 100 µM (inactive)"),
    ("COc1cc2ccnc3c(=C(SC)SC)c(=O)c(c1OC)c23", "42.7 µM (inactive)"),
    ("Cc1cc(C)n(CN(Cn2nc(C)cc2C)C2CCCCC2)n1", "32.1 µM (inactive)"),
    ("CC(=O)NC(CCCNC(=O)NCCCl)C(=O)NCc1ccccc1 (stereo not given)", "> 100 µM (inactive)"),
    ("CC(=O)C(CN1C(=O)c2ccccc2C1=O)C(C)=O", "> 100 µM (inactive)"),
    ("Cc1cc(O)nc2cc3oc4ccccc4c3cc12", "17.1 µM (inactive)"),
    ("CCN(CC)CCOc1ccc(/C=C(\\C#N)c2ccc(OCCN(CC)CC)cc2)cc1", "13.5 µM (inactive)"),
    ("Cc1cc(-c2ccccc2)nc(Nc2nc3ccccc3o2)n1", "> 100 µM (inactive)"),
    ("CN(C)c1ccc(C2ON=C(c3ccccc3)N2C23CC4CC(CC(C4)C2)C3)cc1 (stereo not given)", "> 10 µM (inactive)"),
    ("N=C(N)NS(=O)(=O)c1ccc(NC(=O)c2cccn3c(=O)c4ccccc4nc23)cc1", "> 100 µM (inactive)"),
    ("O=S(=O)(c1ccccc1)c1ccc(-c2nc(-c3ccc4c(c3)Sc3ccccc3S4)cs2)cc1", "27.9 µM (inactive)"),
    ("O=C(O)CN1C(=O)CN=C(c2ccccn2)c2cc(Cl)ccc21", "> 100 µM (inactive)"),
    ("Oc1ccc(C(c2ccc(O)cc2)c2ccc(O)cc2)cc1", "23.2 µM (inactive)"),
    ("COc1cc([C@H]2CC(=O)C[C@H](c3cc(OC)c(OC)c(OC)c3)C23C(=O)c2ccccc2C3=O)cc(OC)c1OC", "41.3 µM (inactive)"),
    ("O=C1NCCCc2nonc21", "> 100 µM (inactive)"),
    ("C=C(C)C[C@H](Sc1nc2ccccc2s1)[C@H](C)O", "37.5 µM (inactive)"),
    ("CC(C)(C)[Si](C)(C)OCCOCn1cc(F)c(=O)[nH]c1=O", "> 100 µM (inactive)"),
    ("Nc1nc(O)nc2snnc12", "25.1 µM (inactive)"),
    ("COc1ccc(/C=C2/CCS(=O)(=O)c3ccc(C)cc3C2=O)cc1OC", "12.8 µM (inactive)"),
    ("COc1ccc(/N=c2\\ssc(C(=S)Nc3ccc(OC)cc3)c2S)cc1", "75.7 µM (inactive)"),
    ("O=C(O)c1cc(-c2ccc3cc(O)c(O)cc3c2)ccc1O", "> 12.5 µM (inactive)"),
    ("CCCCCCCCCCCCCCCCOP(=O)(O)OP(=O)(O)OCC1OC(n2cnc3c(N)ncnc32)C(O)C1O (stereo not given)", "46 µM (inactive)"),
    ("NC(C(F)(F)F)(C(F)(F)F)P(=O)(c1ccccc1)c1ccccc1", "> 100 µM (inactive)"),
    ("CCSc1nc(N)c2c(-c3ccccc3)c3c(nc2n1)CCC3", "> 100 µM (inactive)"),
    ("O=C1OI(C#Cc2ccccc2)c2ccccc21", "2.62 µM (inactive)"),
    ("COC(=O)/C=C/c1ccc2c(c1)CC1(C2)Cc2cc3c(cc2C1=O)CCC3 (stereo not given)", "26.5 µM (inactive)"),
    ("N/N=C1/C2CN3CCN(C2)CC1(c1ccc([N+](=O)[O-])cc1)C3", "> 100 µM (inactive)"),
    ("COc1ccc(C(OCC2OC(n3ccc(NC(=O)c4ccccc4)nc3=O)C(O)C2O)(c2ccccc2)c2ccccc2)cc1 (stereo not given)", "1.92 µM (inactive)"),
    ("CCN(CC)CCNc1ccc2nnn3c4ccc([N+](=O)[O-])cc4c(=O)c1c23", "5.21 µM (inactive)"),
    ("CN(c1c(Cl)cccc1Cl)S(=O)(=O)c1ccccc1[N+](=O)[O-]", "> 100 µM (inactive)"),
    ("N#C/C(=C\\c1ccc(F)cc1)c1nc2ccccc2c(=O)[nH]1", "70.6 µM (inactive)"),
    ("O=C(Nc1nc(C23CC4CC(CC(C4)C2)C3)cs1)c1cc2cc(Cl)ccc2oc1=O", "> 100 µM (inactive)"),
    ("CCN(CC)C(=S)SS(=O)(=O)c1ccccc1C(=O)O", "99.8 µM (inactive)"),
    ("COc1ccc(/C(Cl)=C(/c2ccc(O)cc2)c2ccc(OCCN(C)C)cc2)cc1", "11.2 µM (inactive)"),
    ("COc1ccc(/C(=C/n2ccnc2)C(O)c2ccc(OC)c(OC)c2)cc1OC (stereo not given)", "> 100 µM (inactive)"),
]

* * *

- Tested on: COLO 205
- Experiment Description: NCI tumour cell line growth inhibition, 48 h
Activity calls are given as the source filed them. No stated cut-off is given here; in the data, active = GI50 up to about 1.1 µM and inactive = higher.
Outcomes: T = active, F = inactive

# Molecule, Test Target, Classification
data = [
    ("CNC(=S)Nc1ccc(OC)c2ccccc12", "COLO 205", "F"),
    ("CC(C)(C)OC(=O)NC(CSCc1ccc(C(=O)c2ccccc2)cc1)C(=O)N1CCN(CCCCN2c3ccccc3Sc3cc(N=[N+]=[N-])ccc32)CC1 (centres undefined)", "COLO 205", "F"),
    ("OC(c1ccccc1)(c1ccccc1)c1nccc2ccccc12", "COLO 205", "F"),
    ("COc1cc2c(cc1OC)C(=O)/C(=C/c1ccccc1)C2", "COLO 205", "F"),
    ("C1OCN2c3nonc3N3COCN4c5nonc5N1C2C43 (centres undefined)", "COLO 205", "F"),
    ("COc1nc(N)nc2c1ncn2C1CC(O)C(CO)O1 (centres undefined)", "COLO 205", "F"),
    ("O=c1[nH]nc(Cc2ccc(Cl)cc2)n1Nc1ccccc1", "COLO 205", "F"),
    ("O=[N+]([O-])c1ccc(N/N=C(\\c2ccccc2)c2ccccn2)nc1", "COLO 205", "T"),
    ("Cc1c2cccc-2c(N(C)C)cc2c1[nH]c1ccccc12", "COLO 205", "F"),
    ("S=C(NCc1ccccc1)c1nc[nH]c1C(=S)NCc1ccccc1", "COLO 205", "F"),
    ("CC(=O)Nc1ccc(OC/C(N)=N/NC(=O)c2ccncc2)cc1", "COLO 205", "F"),
    ("CSC1=NC=CCN1C", "COLO 205", "F"),
    ("CC1CCc2c(sc3ncnc(N/N=C/c4ccc(Cl)c(Cl)c4)c23)C1 (centres undefined)", "COLO 205", "F"),
    ("O=C1CCC2CCc3cccc4oc1c2c34 (centres undefined)", "COLO 205", "F"),
    ("N#Cc1c(N)c2c(c(-c3ccccc3)c1-c1ccccc1)C(=O)N(N)C2=O", "COLO 205", "F"),
    ("CCOC(=O)C/C(N)=C(\\C#N)C(=O)OCC", "COLO 205", "F"),
    ("O=C1CCSc2c(cnc3ccccc23)N1", "COLO 205", "F"),
    ("CNC(=O)CN(CC(N)=O)C(=O)NC", "COLO 205", "F"),
    ("CC(=O)/C(=C/n1c(=S)[nH]c2ccccc21)C(=O)Nc1ccccc1C", "COLO 205", "F"),
    ("OC1NC2Nc3ccccc3NC2NC1O (centres undefined)", "COLO 205", "F"),
    ("COc1nc2c(nc(N)n2C2OC(CO)C(O)C(O)C2O)c(=O)[nH]1 (centres undefined)", "COLO 205", "F"),
    ("COC(C)C(O)(C(=O)OCC1=CCN2CCC(O)C12)C(C)(C)O (centres undefined)", "COLO 205", "F"),
    ("COC1C=C(Nc2cccc(Cl)c2)C(=O)C1 (centres undefined)", "COLO 205", "F"),
    ("O=c1[nH]/c(=C/c2ccc(OCc3ccccc3)cn2)c(=O)[nH]/c1=C/c1ccc(O)cc1", "COLO 205", "F"),
]

These entries and their values trace back to ChEMBL document CHEMBL1201862.
